test: gradient 5% acetonitrile 3 min, to 50% in 2 min, to 85% in 15 min, held 3 min, 100 µL/min; conditions: column: Zorbax Extend-C18 2.1 x 50 mm; eluents: water / acetonitrile, 0.1% formic acid
Decide by RP-LC retention time: equal to or exceeding 700 s means satisfied, less means not satisfied.

molecule	discreteLabel
CC(C)(C)C(=O)Nc1ccc(N2CCC(N3CCCCC3)CC2)cc1C(=O)O	not satisfied
CCn1cnc2cc(-c3noc(C4CC(=O)N(c5ccccc5)C4)n3)ccc21 (configuration not stated)	not satisfied
COc1ccc(N2C(=O)CN(Cc3ccccc3C)[C@H]3CS(=O)(=O)C[C@H]32)cc1	satisfied
COc1ccccc1N1CCN(c2cc(SCC(=O)Nc3cccc(SC)c3)ncn2)CC1	satisfied
Cc1oc2ncn(CC(C)C)c(=O)c2c1C(=O)N1CCN(c2ccccn2)CC1	not satisfied
CC(C)N1CCN(c2ncc(C(=O)NCc3ccccc3)c(N)n2)CC1	not satisfied
COc1ccc(OC)c(NC(=O)C2=Cc3cc(Br)ccc3OC2)c1	satisfied
Cc1cccc(C)c1NS(=O)(=O)c1cc2c3c(c1)CCC(=O)N3CCC2	satisfied
COC(=O)c1sc2ccc(NC(=O)C3CCN(S(=O)(=O)c4cccs4)CC3)cc2c1OC	satisfied
Cn1c(=O)oc2cc(-c3noc(-c4cc(F)ccc4Cl)n3)ccc21	satisfied
O=C(CN1CCN(Cc2ccc(F)cc2)C1=O)N1CCN(C2CCCCC2)CC1	not satisfied
CCN1CCCC1CNC(=O)Cn1c(=O)c2cccn2c2ccc(F)cc21 (configuration not stated)	not satisfied
Cc1ccc2c(c1)cc(S(=O)(=O)c1ccccc1)c(=O)n2CC(=O)NC(C)C	satisfied
C=CC(=O)N1C/C(=C\c2ccccc2)C(=O)/C(=C/c2ccccc2)C1	satisfied
CSc1nnc(-c2nn(C)c3c2CN(C(=O)c2c(F)cccc2Cl)CC3)n1C	satisfied
Cc1ccc(-c2cc3n(n2)CCCN(C(=O)CCC(=O)c2ccc(F)cc2)C3)cc1	satisfied
COc1cc2ncc(S(=O)(=O)c3ccc(Cl)cc3)c(N3CCN(C)CC3)c2cc1OC	not satisfied
CCC(C)NC(=O)C1CCN(c2nccc(-n3nc(C)cc3C)n2)CC1 (configuration not stated)	satisfied
Cc1cccc(N2CCN(C(=O)C3CCN(c4cncnc4N(C)C)CC3)CC2)c1C	satisfied
CC1(C(=O)NC2CCCCCC2)CN(S(C)(=O)=O)CC(=O)N1c1cccc(F)c1 (configuration not stated)	satisfied
O=C(Nc1nnc(C2CC(=O)N(c3ccccc3)C2)o1)c1ccc(Cl)cc1 (configuration not stated)	satisfied
CCn1ncc(NC(=O)Cc2ccc(Cl)cc2)c(N2CCOCC2)c1=O	satisfied
O=c1ccc(-c2ccccc2)nn1CCc1nc(-c2ccc(F)cc2)no1	satisfied
O=C(Nc1nccs1)C1CCN(C(=O)C2CC(=O)N(c3ccc(F)cc3)C2)CC1 (configuration not stated)	not satisfied
CC1CCc2c(sc3ncn4c(=O)n(CC(=O)N5CCc6ccccc6C5)nc4c23)C1 (configuration not stated)	satisfied
CC(=O)Nc1nc(-c2ccc3c(c2)N(C)C(=O)CO3)c(C)s1	satisfied
Cc1csc(-c2cc(S(=O)(=O)NC3CC3)cn2CC(=O)N2CCCCC2)n1	satisfied

----------
# RP-LC retention time per entry
assay: gradient 5% acetonitrile 3 min, to 50% in 2 min, to 85% in 15 min, held 3 min, 100 µL/min; settings: column: Zorbax Extend-C18 2.1 x 50 mm; eluents: water / acetonitrile, 0.1% formic acid

compound	RP-LC retention time [s]
O=C(c1cc(F)ccc1Cl)N1CCc2nc(-c3ccc(Cl)cc3)ncc2C1	1130
CCOC(=O)C1CCCN(C(=O)c2ccc(SCCN3CCCCC3)nc2)C1 (centres undefined)	629
COc1cc([C@@H]2c3cc4c(cc3[C@H](O)[C@@H](CO)[C@@H]2C(=O)N2CCN(C)CC2)OCO4)cc(OC)c1OC	600
CC(=O)c1ccc(Oc2ccc(/C(C)=N\N=C(N)N)cc2)cc1	674
COc1ccc(C(=O)NC2CCN(c3cc(-c4ccccc4)[nH]n3)C2)cc1OC (centres undefined)	663
COc1ccc(OCC(=O)N2CCN(c3ccc(-c4nc(C)c(C)s4)cn3)CC2)cc1	855
Cc1cc(-c2nnc(-c3ccc(F)cc3)o2)c(C)n1CC(=O)N(C)Cc1ccccc1	1000
O=C(NCC(O)C1CCCCC1)c1cccc(C(F)(F)F)c1 (centres undefined)	840
CCOC(=O)c1ccc(Nc2ncnc3c2ncn3CC)cc1	760
